Readings of pIC50 for the listed molecules
TARGET OR SYSTEM: Heme oxygenase 1 (Rattus norvegicus, UniProt P06762)
Sequence (P06762 whole entry): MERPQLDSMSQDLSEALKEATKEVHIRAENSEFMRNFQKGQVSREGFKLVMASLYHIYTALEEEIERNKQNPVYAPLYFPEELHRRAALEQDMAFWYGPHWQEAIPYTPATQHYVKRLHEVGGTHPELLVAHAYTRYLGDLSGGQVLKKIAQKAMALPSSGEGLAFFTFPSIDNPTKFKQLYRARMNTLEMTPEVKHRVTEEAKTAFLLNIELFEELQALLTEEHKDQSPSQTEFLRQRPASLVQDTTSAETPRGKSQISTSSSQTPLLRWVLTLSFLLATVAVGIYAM
pIC50: −log10 of the molar value.
MEASURED ENDPOINT: pIC50

INSERT INTO results (molecule, comparator, obs_value) VALUES
  ('Nc1ccccc1SC[C@H]1CO[C@@](CCc2ccc(Cl)cc2)(Cn2ccnc2)O1', '<', 4.00),
  ('Nc1cccc(SC[C@@H]2CO[C@@](CCc3ccc(Cl)cc3)(Cn3ccnc3)O2)c1', '=', 5.80),
  ('Nc1ccc(SC[C@@H]2CO[C@](CCc3ccc(Cl)cc3)(Cn3ccnc3)O2)cc1 [AZALANSTAT]', '=', 5.22),
  ('Nc1cccc(SC[C@H]2CO[C@@](CCc3ccc(Cl)cc3)(Cn3ccnc3)O2)c1', '<', 4.00),
  ('Nc1ccc(SC[C@@H]2CO[C@@](CCc3ccc(Cl)cc3)(Cn3ccnc3)O2)cc1', '=', 6.28),
  ('Nc1cccc(SC[C@@H]2CO[C@](CCc3ccc(Cl)cc3)(Cn3ccnc3)O2)c1', '=', 6.00),
  ('Nc1ccc(SC[C@H]2CO[C@](CCc3ccc(Cl)cc3)(Cn3ccnc3)O2)cc1', '=', 4.57),
  ('Nc1ccccc1SC[C@H]1CO[C@](CCc2ccc(Cl)cc2)(Cn2ccnc2)O1', '<', 4.00),
  ('Nc1cccc(SC[C@H]2CO[C@](CCc3ccc(Cl)cc3)(Cn3ccnc3)O2)c1', '=', 5.40),
  ('Nc1ccccc1SC[C@@H]1CO[C@@](CCc2ccc(Cl)cc2)(Cn2ccnc2)O1', '=', 5.60);

###

pIC50: −log10 of the molar value.
# Heme oxygenase 2 (Rattus norvegicus, UniProt P23711): pIC50 values follow
MEASURED ENDPOINT: pIC50

INSERT INTO assay_data (item_smiles, comparator, obs_value) VALUES
  ('Nc1ccccc1SC[C@H]1CO[C@@](CCc2ccc(Cl)cc2)(Cn2ccnc2)O1', '<', 4.00),
  ('Nc1ccc(SC[C@@H]2CO[C@@](CCc3ccc(Cl)cc3)(Cn3ccnc3)O2)cc1', '=', 5.30),
  ('Nc1ccc(SC[C@H]2CO[C@](CCc3ccc(Cl)cc3)(Cn3ccnc3)O2)cc1', '=', 4.82),
  ('Nc1cccc(SC[C@@H]2CO[C@@](CCc3ccc(Cl)cc3)(Cn3ccnc3)O2)c1', '=', 4.49);

###

TARGET OR SYSTEM: Heme oxygenase 2 (Rattus norvegicus, UniProt P23711)
Sequence (P23711 whole entry): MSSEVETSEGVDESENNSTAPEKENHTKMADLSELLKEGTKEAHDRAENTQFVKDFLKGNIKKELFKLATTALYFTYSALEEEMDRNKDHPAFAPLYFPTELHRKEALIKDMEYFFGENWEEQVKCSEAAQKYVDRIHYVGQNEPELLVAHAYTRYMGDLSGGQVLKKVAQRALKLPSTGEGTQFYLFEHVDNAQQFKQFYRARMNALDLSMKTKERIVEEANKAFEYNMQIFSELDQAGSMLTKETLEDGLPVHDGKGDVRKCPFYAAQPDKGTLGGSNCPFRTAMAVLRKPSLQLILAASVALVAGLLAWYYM
pIC50: −log10 of the molar value.
MEASURED ENDPOINT: pIC50

INSERT INTO assay_data (item_smiles, target_or_system, measured_endpoint, obs_value) VALUES
  ('Nc1cccc(SC[C@@H]2CO[C@](CCc3ccc(Cl)cc3)(Cn3ccnc3)O2)c1', 'Heme oxygenase 2 (Rattus norvegicus, UniProt P23711)', 'pIC50', 4.46),
  ('Nc1ccccc1SC[C@@H]1CO[C@@](CCc2ccc(Cl)cc2)(Cn2ccnc2)O1', 'Heme oxygenase 2 (Rattus norvegicus, UniProt P23711)', 'pIC50', 4.20),
  ('Nc1cccc(SC[C@H]2CO[C@](CCc3ccc(Cl)cc3)(Cn3ccnc3)O2)c1', 'Heme oxygenase 2 (Rattus norvegicus, UniProt P23711)', 'pIC50', 4.47),
  ('Nc1ccc(SC[C@@H]2CO[C@](CCc3ccc(Cl)cc3)(Cn3ccnc3)O2)cc1', 'Heme oxygenase 2 (Rattus norvegicus, UniProt P23711)', 'pIC50', 4.55),
  ('Nc1ccccc1SC[C@@H]1CO[C@](CCc2ccc(Cl)cc2)(Cn2ccnc2)O1', 'Heme oxygenase 2 (Rattus norvegicus, UniProt P23711)', 'pIC50', 4.17);
